Experiment: In vivo bioavailability experiment in mice (pharmacokinetics)
Conditions: mouse, plasma; ICR mice, intravenous injection, dose 3 (3 mg/kg in method)
Counter-ions that a name gives are not always drawn.
Item-by-item account of half-life
State the answer as a number, implicitly in h.

>>> readout_number("CCc1cccc2cc(O)cc(-c3c(F)c4c5c(nc(OC[C@@]67CCCN6C[C@H](F)C7)nc5c3F)N3CC5CCC(N5)C3CCO4)c12 (single isomer, unassigned) [13a′]")
15.9
>>> readout_number("CCc1cccc2cc(O)cc(-c3c(F)c4c5c(nc(OC[C@]67C[C@@H](F)CN6C[C@@H](CN6C[C@@H](C)O[C@@H](C)C6)C7)nc5c3F)N3CC5CCC(N5)C3CO4)c12 (single isomer, unassigned) [Compound 25b, trihydrochloride]")
12.2

The record that follows has no half-life shown yet.
Task: Give half-life for CCc1cccc2cc(O)cc(-c3c(F)c4c5c(nc(OC[C@]67C[C@@H](F)CN6C[C@@H](COC)C7)nc5c3F)N3CC5CCC(N5)C3CO4)c12 (single isomer, unassigned) [Compound 18b, dihydrochloride]
Output: 11.8

---

Target: GTP-KRAS-G12D:SOS1 (Homo sapiens (Human), UniProt P01116, G12D)
Sequence (P01116-2 other isoform, or with tags, fused parts or gaps G12D): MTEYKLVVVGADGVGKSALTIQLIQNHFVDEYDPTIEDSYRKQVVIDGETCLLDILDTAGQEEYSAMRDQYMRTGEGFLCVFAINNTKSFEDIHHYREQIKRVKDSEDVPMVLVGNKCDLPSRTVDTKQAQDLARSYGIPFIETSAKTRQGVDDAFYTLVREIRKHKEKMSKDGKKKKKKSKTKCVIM
Assay: GTP-KRAS-G12D:SOS1 binding inhibition
Counter-ions that a name gives are not always drawn.
MEASUREMENT_TYPE: IC50 (µM)
State the answer as a number, implicitly in µM.

Look over these answered cases.
>>> readout_number("CCc1cccc2cc(O)cc(-c3c(F)c4c5c(nc(OC[C@]67C[C@@H](F)CN6C[C@@H](CO)C7)nc5c3F)N3CC5CCC(N5)C3CO4)c12 (single isomer, unassigned) [Compound 23b, dihydrochloride]")
0.00575
>>> readout_number("COc1ccc(-c2cc[nH]n2)c(-c2c(F)c3c4c(nc(OC[C@@]56CCCN5C[C@H](F)C6)nc4c2F)N2CC4CCC(N4)C2CO3)c1 (stereo partly drawn) [Compound 17, dihydrochloride]")
8.31
>>> readout_number("CCc1cccc2cc(O)cc(-c3c(F)c4c5c(nc(OC[C@]67C[C@@H](F)CN6C[C@@H](CN6CCOCC6)C7)nc5c3F)N3CC5CCC(N5)C3CO4)c12 (single isomer, unassigned) [Compound 28b, trihydrochloride]")
0.0152
>>> readout_number("Cc1cc(N)nc(-c2c(F)c3c4c(nc(OC[C@@]56CCCN5C[C@H](F)C6)nc4c2F)N2CC4CCC(N4)C2CO3)c1C(F)(F)F (single isomer, unassigned) [10b′]")
0.0117
>>> readout_number("Oc1cc(-c2c(F)c3c4c(nc(OC[C@@]56CCCN5C[C@H](F)C6)nc4c2F)N2CC4CCC(N4)C2CO3)c2c3c(ccc2c1)CCC3 (single isomer, unassigned) [Compound 14b, dihydrochloride]")
0.0153
>>> readout_number("CCc1cccc2cc(O)cc(-c3c(F)c4c5c(nc(OC[C@@]67CCCN6C[C@H](F)C7)nc5c3F)N3CC5CCC(N5)C3CO4)c12 (single isomer, unassigned) [Compound 5a, dihydrochloride]")
0.0145

Task: Give IC50 for CCc1cccc2cc(O)cc(-c3c(F)c4c5c(nc(OC[C@]67C[C@@H](F)CN6C[C@@H](CN6C[C@@H](C)O[C@@H](C)C6)C7)nc5c3F)N3CC5CCC(N5)C3CO4)c12 (single isomer, unassigned) [Compound 25b, trihydrochloride]
Output: 0.00672

Task: Give IC50 for Oc1ccc(-c2cc[nH]n2)c(-c2c(F)c3c4c(nc(OC[C@@]56CCCN5C[C@H](F)C6)nc4c2F)N2CC4CCC(N4)C2CO3)c1 (stereo partly drawn) [Compound 24, dihydrochloride]
Output: 2.07

Task: Give IC50 for CCc1cccc2cc(O)cc(-c3c(F)c4c5c(nc(OC[C@@]67C[C@H](O)CN6C[C@H](F)C7)nc5c3F)N3CC5CCC(N5)C3CO4)c12 (single isomer, unassigned) [Compound 15b, dihydrochloride]
Output: 0.00654

---

Molecular target: GTP-KRAS-G12D:SOS1 (Homo sapiens (Human), UniProt P01116, G12D)
Assay: GTP-KRAS-G12D:SOS1 binding inhibition
Method: The IC50 of the compounds was fitted using a nonlinear regression equation with GraphPad Prism 8. The results are presented in Table 2: • Negative control: DMSO • Positive control: 100 μM BI-2852 The following nonlinear fitting formula was used to obtain the IC50 (half-maximal inhibitory concentration) of the compounds: [formula] • X: logarithm of the compound concentration • Y: 665/615 Ratio
Structures can show the parent of a compound that is named as a salt.
Each record is given YES if its reported IC50 is strictly below 4000 nM. Records at or above 4000 nM are given NO.

Consider the worked cases shown below.
>>> cat("CCc1cccc2cc(O)cc(-c3c(F)c4c5c(nc(OC[C@@]67CCCN6C[C@H](F)C7)nc5c3F)N3CC5CCC(N5)C3CO4)c12 (single isomer, unassigned) [Compound 5b, dihydrochloride]")
"YES"
>>> cat("CC1CC2(CCc3c(nc(OC[C@@]45CCCN4C[C@H](F)C5)nc3N3CC4CCC(C3)N4)C2)c2cc(O)cc(Cl)c21 (single isomer, unassigned) [Compound 7a, dihydrochloride]")
"YES"
>>> cat("CCc1cccc2cc(O)cc(-c3c(F)c4c5c(nc(OC[C@]67C[C@@H](F)CN6C[C@@H](CN6CCOCC6)C7)nc5c3F)N3CC5CCC(N5)C3CO4)c12 (single isomer, unassigned) [Compound 28a, trihydrochloride]")
"NO"

Moving on to the next molecule.
Task: Is 4000 nM strictly greater than the molecule's reported IC50? molecule: CCc1cccc2cc(O)cc(-c3c(F)c4c5c(nc(OC[C@@]67CCCN6C[C@H](F)C7)nc5c3F)N3CC5CCC(N5)C3CCO4)c12 (single isomer, unassigned) [13a′]
Output: YES
